Experiment: self-splicing fitness, log relative to wild type (ln ratio); higher = more splicing; Tetrahymena group I intron in knt gene, E. coli kanamycin selection, DiMSum; sequences stand for … in CUCUCU…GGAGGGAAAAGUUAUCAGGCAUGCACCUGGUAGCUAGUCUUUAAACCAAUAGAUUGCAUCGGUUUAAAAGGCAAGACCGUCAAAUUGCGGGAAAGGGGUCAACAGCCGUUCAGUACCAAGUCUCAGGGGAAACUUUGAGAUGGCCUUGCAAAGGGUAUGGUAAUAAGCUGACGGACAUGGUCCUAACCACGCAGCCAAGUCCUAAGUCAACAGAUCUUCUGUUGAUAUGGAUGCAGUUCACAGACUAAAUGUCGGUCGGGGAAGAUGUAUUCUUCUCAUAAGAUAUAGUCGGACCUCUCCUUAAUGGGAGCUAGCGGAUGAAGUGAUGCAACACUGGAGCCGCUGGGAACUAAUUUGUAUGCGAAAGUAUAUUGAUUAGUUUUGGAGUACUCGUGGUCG;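 also: selection with 25 µg/mL kanamycin versus none on LB agar overnight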
Details: 30 °C
Please map values of self-splicing fitness (ln) to classes as shown: LOW = under -3, MEDIUM = from -3 up to -1, HIGH = -1 and over

{"entry sequence": "CAACAGCAAUAUUACGAGGG", "class label": "MEDIUM"}
{"entry sequence": "GGAGAGCAAUAUUACGCACU", "class label": "MEDIUM"}
{"entry sequence": "GGCCAGCAAUAUUACGGUCU", "class label": "MEDIUM"}
{"entry sequence": "UGUAAGCAAUAUUACGCGCG", "class label": "HIGH"}
{"entry sequence": "CUCGAGCAAUAUUACGGUUG", "class label": "LOW"}
{"entry sequence": "CGCUAGCAAUAUUACGCAUG", "class label": "MEDIUM"}
{"entry sequence": "CUACAGCAAUAUUACGGGCG", "class label": "MEDIUM"}
{"entry sequence": "GCAUAGCAAUAUUACGCAGA", "class label": "MEDIUM"}

Inquiry: Assign a category based on measured self-splicing fitness (ln) for "GAAGAGCAAUAUUACGCUGU" and give only the class name.
Reply text: LOW

Inquiry: Field: class (self-splicing fitness (ln)) — entry: "CCAGAGCAAUAUUACGGGUG"
Reply text: MEDIUM
